- Tgt: T1, NDC80 Peptide A … / HLA-A*02:01 complex (human)
- T1 construct: whole, on cells; On peptide-pulsed T2 cells (HLA-A*02:01+); also called NDC80/HLA-A*02:01 complex; NDC80/MHC I
- Protocol Details: FACS, scFv phage on peptide-loaded T2 cells

Binder: Clone 15 scFv phage clone (scFv, V domains shown) VH: QVQLQESGPGLVKPSGTLSLTCAVSGGSISSSNWWSWVRQPPGKGLEWIGEIYHSGSTNYNPSLKSRVTISVDKSKNQFSLKLSSVTAADTAVYYCARYPGFVWDLWGQGTLVTVSS VL: QSVLTQPPSVSAAPGQKVTISCSGSSSNIGSNYVSWYQQLPGTAPKLLIYDNNKRPSGIPDRFSGSKSGTSAILGITGLQTGDEADYYCGTWDSSLTAGVFGTGTKVTVLG
binding result: binds
--
Binder: Clone 10 scFv phage clone (scFv, V domains shown) VH: QVQLQESGPGLVKPPGTLSLTCAVSGGSISSSNWWSWVRQPPGKGLEWIGEIYHSGSTNYNPSLNSRVIISDDTSKNQFSLTLTSVTAADTAVYYCARYYNSYYDSWGQGTLVTVSS VL: QSVLTQPPSVSAAPGQKVTISCSGSSSNIGSNYVSWYQQLPGTAPKLLIYDNNKRPSGIPDRFSGSKSGTSATLGITGLQTGDEADYYCGTWDSSLSAYVFGTGTKVTVLG
binding result: binds
